test: in vivo; format: in vivo, rats (Sprague Dawley); conditions: rat, in vivo; rats, oral; read-out: Maximum effect, Dose (maximum nontoxic dose)
Counter-ions that a name gives are not always drawn.
MTD by entry:
Expressed in mg/kg, but write only the number.

Solved entries:
CC1CN=C(c2ccc(-c3nsc4ccccc34)cc2)N1 (stereo not drawn) [Example 3, hydrochloride]	215
CCN(CC)CCNC(=O)c1ccc(N)cc1 [Procainamide, procainamide, reference compound]	681

# context switch: different compound, same MTD
Summary for this compound, c1ccc2c(-c3ccc(C4=NCCCN4)cc3)nsc2c1 [Example 2, hydrochloride] : MTD is 215
